tested on: HuM2e antibody 23K12; type: binding, human
# if value of Signal (peptides that bind to 23K21 and 8I10) reaches 1000, tag satisfied; if it stays below, tag not satisfied

474 (SLLTECETPIRNEWGCRCNDSSD; epitope peptide) [compound 474]
satisfied

[Q] Can 538 (LLLTEVETPIRNEWGCRCNDSSD; epitope peptide) [compound 538] be said to have Signal (peptides that bind to 23K21 and 8I10) at or above 1000?
[A] not satisfied

----------
test system: HuM2e antibody 23K12; format: binding, human
Measured Property: Signal (peptides that bind to 23K21 and 8I10)
API doc: respond with a numeric literal and nothing else, no unit.

616 (SLLTEVETPIRNPWGCRCNDSSD; epitope peptide) [compound 616]
808

Bench note, HuM2e antibody 23K12: 435 (SLLTEVETP; epitope peptide) [compound 435] , Signal (peptides that bind to 23K21 and 8I10) reads 899

Record 465 (SLLTEVETPIRNEWGCRCNKSSD; epitope peptide) [compound 465] has HuM2e antibody 23K12 Signal (peptides that bind to 23K21 and 8I10) equal to 1254

Per the reported HuM2e antibody 23K12 data, 543 (MSLLTCVGMSLLTEV; epitope peptide) [compound 543] has Signal (peptides that bind to 23K21 and 8I10) of 925

----------
system: HuM2e antibody 23K12; assay type: binding, human
hey, just use true if measured Signal (peptides that bind to 23K21 and 8I10) is less than 1000, otherwise false

314 (SLLTEVGSLLCEV; epitope peptide) [compound 314]
false

[Q] Quick check: does 587 (SLLTEVETPIRCEWGCRCNDSSD; epitope peptide) [compound 587] have Signal (peptides that bind to 23K21 and 8I10) under 1000?
[A] true

[Q] hey, is Signal (peptides that bind to 23K21 and 8I10) for 689 (SLLTEVETPIRNEWGCRCGDSSD; epitope peptide) [compound 689] lower than 1000 or not?
[A] true

[Q] Please let me know if 449 (SLNTEVETPIRNEWGCRCNDSSD; epitope peptide) [compound 449] shows Signal (peptides that bind to 23K21 and 8I10) below 1000.
[A] false

[Q] For this substance, is Signal (peptides that bind to 23K21 and 8I10) lower than 1000? 341 (CSLLTEVCSLLTEC; epitope peptide) [compound 341]
[A] false

[Q] Item 544 (SLLTEVETPIRNEWGCRCRDSSD; epitope peptide) [compound 544] : Signal (peptides that bind to 23K21 and 8I10) beneath 1000, strictly?
[A] true

[Q] Find out if reported Signal (peptides that bind to 23K21 and 8I10) for 656 (SLLTEVETPIWNEWGCRCNDSSD; epitope peptide) [compound 656] is less than 1000
[A] true

----------
Recorded measurements of Binding activity to truncated M2 peptides, ELISA absorbance at 450 nm, 2N9, one per entry
system: 2N9 control antibody; format: binding
Answer as a number with no unit attached.

Consider the reported Binding activity to truncated M2 peptides, ELISA absorbance at 450 nm, 2N9 for these substances:
PIRNEWGCRCNDSSD [CM15]
0.11
SLLTEVE [NM7]
0.08
SLLTEVETPIRNE [NM13]
0.10
SLLTEVETPIRNEWGCR [NM17]
0.10
IRNEWGCRCNDSSD [CM14]
0.13

GET /value?item= SLLTEVET [NM8] &field=Binding activity to truncated M2 peptides, ELISA absorbance at 450 nm, 2N9 returns 0.09

The recorded Binding activity to truncated M2 peptides, ELISA absorbance at 450 nm, 2N9 for entry LLTEVETPIRNEWGCR [M16] equals 0.09

----------
system: HuM2e antibody 23K12; type: binding, human
Measured Property: Signal (peptides that bind to 23K21 and 8I10)

Solved entries:
444 (SLLTEVETPIRNEWGCRC; epitope peptide) [compound 444]
898
409 (SLLTEVETPIRNEWGCRCNDKSD; epitope peptide) [compound 409]
898
558 (CSLLTECGMSCLCEC; epitope peptide) [compound 558]
897
425 (SLLTEVETPIRNEWGCRCNDSKD; epitope peptide) [compound 425]
770
393 (SLLTEVETPIRNEWGCRCNLSSD; epitope peptide) [compound 393]
1334

Documented Signal (peptides that bind to 23K21 and 8I10) of 291 (MSLLTEVGMCLCTCV; epitope peptide) [compound 291] : 2110

----------
tested on: anti-M2 human monoclonal antibody Z3G1; type: binding
Measured Property: Signal (peptides that show specific binding to Z3G1)
Returns: the value as a bare number; no unit string appended.

Would you please look over these solved cases?
389 (SLLTEVETPYRNEWGCRCNDSSD; epitope peptide) [compound 389]
2303
621 (SLLTEVEFPIRNEWGCRCNDSSD; epitope peptide) [compound 621]
2297
1565 (FLLTEVETPIRNEWGCRCNDSSD; epitope peptide) [compound 1565]
1018

// Signal (peptides that show specific binding to Z3G1) lookup, substance = 703 (SLLTEVETPIRNWWGCRCNDSSD; epitope peptide) [compound 703] , result: 2293

The value of Signal (peptides that show specific binding to Z3G1) measured for the substance 596 (SLLTEVETPIRNEWFCRCNDSSD; epitope peptide) [compound 596] turned out to be 2493

For record 384 (SLLTEVETPIRNEYGCRCNDSSD; epitope peptide) [compound 384] the listed Signal (peptides that show specific binding to Z3G1) is 2426

Lab note: 697 (SLLTEVETPIRNEWGCRINDSSD; epitope peptide) [compound 697] gave Signal (peptides that show specific binding to Z3G1) of 2409

----------
system: HuM2e antibody 23K12; type: binding, human
Measured Property: Signal (peptides that bind to 23K21 and 8I10)
Number, no unit, nothing else.

609 (SLLTEVETHIRNEWGCRCNDSSD; epitope peptide) [compound 609]
816

The substance 607 (SLLTEVESPIRNEWGCRCNDSSD; epitope peptide) [compound 607] , when measured on HuM2e antibody 23K12, yielded Signal (peptides that bind to 23K21 and 8I10) of 817

// assay HuM2e antibody 23K12, entry 525 (SLLTEVGCSCLCEV; epitope peptide) [compound 525] , Signal (peptides that bind to 23K21 and 8I10) value = 996

Observed Signal (peptides that bind to 23K21 and 8I10), HuM2e antibody 23K12, 399 (SLLTEVETPIRNEWGCRCNTSSD; epitope peptide) [compound 399] : 795

The substance 461 (SLLTEVETPLRNEWGCRCNDSSD; epitope peptide) [compound 461] , tested on HuM2e antibody 23K12, showed Signal (peptides that bind to 23K21 and 8I10) of 1268

530 (SLLTESETPIRNEWGCRCNDSSD; epitope peptide) [compound 530] tested on HuM2e antibody 23K12 gave Signal (peptides that bind to 23K21 and 8I10): 974

----------
system: anti-M2 human monoclonal antibody Z3G1; assay type: binding
Measured Property: Signal (peptides that bind to Z3G1)
Could you keep your reply to the number by itself?

Recorded Signal (peptides that bind to Z3G1) (substance 1366 (SLLCEVECPIRNE; epitope peptide) [compound 1366] ): 2377

Per the record, 1306 (MSLLTEVLTPIRNEWGCRCN; epitope peptide) [compound 1306] has Signal (peptides that bind to Z3G1) of 2714

The recorded Signal (peptides that bind to Z3G1) for entry 359 (MSLLTEVGMSCLTEV; epitope peptide) [compound 359] equals 2793

So for 1298 (MSLLTTVETPIRNEWGCRCN; epitope peptide) [compound 1298] , the logged Signal (peptides that bind to Z3G1) turned out to be 2699

----------
tested on: anti-M2 human monoclonal antibody Z3G1; assay type: binding
Note to self: Signal (peptides that show specific binding to Z3G1) under 2000 means 1 (yes), ties and anything higher get 0 (no).

Consider the following illustrative entries.
645 (SLLTEVVTPIRNEWGCRCNDSSD; epitope peptide) [compound 645]
1 (yes)
336 (SLLCEVGSLLTEV; epitope peptide) [compound 336]
0 (no)
666 (SLLTEVETPIRNAWGCRCNDSSD; epitope peptide) [compound 666]
0 (no)

Now for another entry.
[Q] Strictly below 2000 in Signal (peptides that show specific binding to Z3G1)? 283 (CSLLTEVGSLLTEV; epitope peptide) [compound 283]
[A] 0 (no)

----------
tested on: anti-M2 human monoclonal antibody Z3G1; assay type: binding
Known Signal (peptides that bind to Z3G1) of a selection of substances
Write the number on its own, no unit after it.

Here's what some known entries look like.
410 (SLLTEVETPIRNEWGCRCNDLSD; epitope peptide) [compound 410]
2494
1348 (MSLCTEVGCSCLCEV; epitope peptide) [compound 1348]
2001

Pending substance:
The substance listed as 451 (CSLLTEVGMSLLTEC; epitope peptide) [compound 451] has a reported Signal (peptides that bind to Z3G1) of 2613
